biological target: T1, THD1 Δ401-405 (UniProt P26039 1-405, Δ401-405); test: MST; apparent; THD1 or THD1 mutants titrated to 488–β3-CT in the presence of 30-40 µM KIND2; MST buffer; details: both partners purified
T1 construct: source: E. coli (DE3) Rosetta 2, purified (IMAC, SEC); not shown: His10-SUMO, N-terminal, cleaved
T1 sequence (P26039 1-400, stated change not applied): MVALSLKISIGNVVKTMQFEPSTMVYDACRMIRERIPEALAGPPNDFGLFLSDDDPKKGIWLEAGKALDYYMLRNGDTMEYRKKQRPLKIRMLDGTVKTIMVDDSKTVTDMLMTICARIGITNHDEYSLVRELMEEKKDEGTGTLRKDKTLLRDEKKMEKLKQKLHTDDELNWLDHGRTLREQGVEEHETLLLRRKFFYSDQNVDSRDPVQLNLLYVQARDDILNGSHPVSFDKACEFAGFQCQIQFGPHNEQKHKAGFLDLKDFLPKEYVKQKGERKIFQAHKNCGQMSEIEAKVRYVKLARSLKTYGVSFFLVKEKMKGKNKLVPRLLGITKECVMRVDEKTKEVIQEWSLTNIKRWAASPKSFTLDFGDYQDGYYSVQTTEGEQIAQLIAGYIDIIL
No end group written: not given here.
parameter: Kd (µM)

[[record]]
binder = "{ATTO 488}-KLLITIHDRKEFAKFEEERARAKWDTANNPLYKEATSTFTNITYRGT (peptide, UniProt O54890 741-787, looked up, integrin β3 cytoplasmic tail (β3-CT); source: synthetic peptide (MPIB Core Facility)) [ATTO 488-labeled integrin β3 cytoplasmic tail (488–β3-CT)]"
assay_result = 560

